Tested on: RAW-Dual (murine macrophage reporter line)
Assay: NF-kB reporter (SEAP) activity fold change vs agonist alone; higher = enhanced NF-kB activity
Conditions: modulator concentration 10 µM; agonist: MPLA […]

>  <compound>
CN1CCN(CCOc2cc(OC3CCOCC3)c3c(Nc4c(Cl)ccc5c4OCO5)ncnc3c2)CC1

>  <NF-kB reporter>
1.99

$$$$
>  <compound>
CN(C)c1nc(CNC(=O)CSc2nc3ccccc3o2)nc(N(C)C)n1

>  <NF-kB reporter>
1.01

$$$$
>  <compound>
Nc1c2c(nc3ccccc13)CCCC2 [Prestw-329]

>  <NF-kB reporter>
1.24

$$$$
>  <compound>
COc1ccc(OS(=O)(=O)c2ccc3cc(OC)ccc3c2)cc1

>  <NF-kB reporter>
1.06

$$$$
>  <compound>
Fc1ccc(Nc2nc(NN=Cc3ccc(Cl)cc3)nc(N3CCCCC3)n2)cc1

>  <NF-kB reporter>
1.01

$$$$
>  <compound>
CCCCc1nc2cc(/C=C/C(=O)NO)ccc2n1CCN(CC)CC

>  <NF-kB reporter>
2.71

$$$$
>  <compound>
CC(=O)OC1(C(C)=O)CCC2C3C=C(C)C4=CC(=O)CCC4(C)C3CCC21C (configuration not stated)

>  <NF-kB reporter>
1.21

$$$$
>  <compound>
CCCCc1ncc(/C=C(\Cc2cccs2)C(=O)O)n1Cc1ccc(C(=O)O)cc1.CS(=O)(=O)O

>  <NF-kB reporter>
1.03

$$$$
>  <compound>
O=C(COC(=O)c1ccc(Cl)c([N+](=O)[O-])c1)c1ccc(Cl)cc1

>  <NF-kB reporter>
0.99

$$$$
>  <compound>
Cc1ccc(S(=O)(=O)N=C(Nc2ccc([N+](=O)[O-])cc2)c2ccccc2)cc1

>  <NF-kB reporter>
0.928

$$$$
>  <compound>
Cn1cnc2c(F)c(Nc3ccc(Br)cc3Cl)c(C(=O)NOCCO)cc21

>  <NF-kB reporter>
0.183

$$$$
>  <compound>
Cl.N=C(N)NC(=O)c1nc(Cl)c(N)nc1N.O.O

>  <NF-kB reporter>
1.05

$$$$
>  <compound>
Cc1cc(OCC(O)CN2CCCCC2C)cc(C)c1Cl.Cl (configuration not stated)

>  <NF-kB reporter>
0.796

$$$$
>  <compound>
Cc1ccc(S(=O)(=O)N2CCN(C(C)C)CC2)cc1

>  <NF-kB reporter>
1.01

$$$$
>  <compound>
COc1cc(C2Oc3cc(C4Oc5cc(O)cc(O)c5C(=O)C4O)ccc3OC2CO)ccc1O (configuration not stated)

>  <NF-kB reporter>
1.13

$$$$
>  <compound>
CCCCS(=O)(=O)N[C@@H](Cc1ccc(OCCCCC2CCNCC2)cc1)C(=O)O.Cl.O

>  <NF-kB reporter>
0.987

$$$$
>  <compound>
CCCC1CC(C(=O)NC(C(C)O)C2OC(SC)C(O)C(O)C2O)N(C)C1.Cl (configuration not stated)

>  <NF-kB reporter>
0.924

$$$$

---

Test system: RAW-Dual (murine macrophage reporter line)
Experiment: NF-kB reporter (SEAP) activity fold change vs agonist alone; higher = enhanced NF-kB activity
Conditions: modulator concentration 10 µM; agonist: LPS 0.1 ug/mL
# Lookup of reported NF-kB reporter keyed by entry

>  <compound>
Clc1ccc(-c2nc(-c3ccc(I)cc3)[nH]c2-c2ccc(Cl)cc2)cc1

>  <NF-kB reporter>
0.91

$$$$
>  <compound>
CCN(CC)CCN1C(=O)C(O)=C(C(=O)c2ccc(Br)cc2)C1c1ccccc1F (centres undefined)

>  <NF-kB reporter>
0.884

$$$$
>  <compound>
CC(=NN1CCN(Cc2cccc3ccccc23)CC1)c1ccc(Br)cc1

>  <NF-kB reporter>
1.04

$$$$
>  <compound>
Cc1cccc(OCCCOc2cccc3cccnc23)c1C

>  <NF-kB reporter>
0.895

$$$$
>  <compound>
O=C1CCC(=O)N1C1CC2CCC(C1)N2C(=O)c1cnccn1 (centres undefined)

>  <NF-kB reporter>
0.903

$$$$
>  <compound>
Cl.Cn1c(=N)n(CC(O)c2ccco2)c2ccccc21 (centres undefined)

>  <NF-kB reporter>
1.09

$$$$
>  <compound>
CCc1ccc(CCOc2ccc(CC3SC(=O)NC3=O)cc2)nc1.Cl (centres undefined)

>  <NF-kB reporter>
1.04

$$$$
>  <compound>
Cn1cnc2c(F)c(Nc3ccc(Br)cc3Cl)c(C(=O)NOCCO)cc21

>  <NF-kB reporter>
0.124

$$$$
>  <compound>
COCCNC(=O)C=Cc1ccccc1

>  <NF-kB reporter>
0.936

$$$$
>  <compound>
O=C(Nc1ccc(Br)cc1)c1cccc(S(=O)(=O)NC2CCCCC2)c1

>  <NF-kB reporter>
0.846

$$$$
>  <compound>
O=[N+]([O-])c1ccc(C=Nc2sc3c(c2-c2nc4ccccc4s2)CCCC3)cc1

>  <NF-kB reporter>
0.955

$$$$
>  <compound>
CCC1(C)CC(CCN)(c2ccc(C)cc2)CCO1 (centres undefined)

>  <NF-kB reporter>
1.02

$$$$
>  <compound>
CCOc1ccc(C=C2SC(=S)N(C)C2=O)cc1

>  <NF-kB reporter>
1.01

$$$$
>  <compound>
COc1ccccc1N1C(=O)C(=Cc2ccc3c(c2)OCO3)SC1=S

>  <NF-kB reporter>
1.05

$$$$
>  <compound>
Oc1c2c(nc3cc(-c4ccc(Br)cc4)nn13)CCS2

>  <NF-kB reporter>
1.04

$$$$
>  <compound>
Nc1nc(N)c2nc(-c3ccccc3)c(N)nc2n1

>  <NF-kB reporter>
1.03

$$$$
>  <compound>
O=C(COCc1ccccc1)NC1CCC(F)(F)CC1

>  <NF-kB reporter>
1.03

$$$$
>  <compound>
O=C(Cc1ccc(Cl)cc1)Nc1ccc2oc(-c3c(F)c(F)c(F)c(F)c3F)nc2c1

>  <NF-kB reporter>
0.882

$$$$
>  <compound>
Fc1ccc(Nc2nc(NN=Cc3ccc(Cl)cc3)nc(N3CCCCC3)n2)cc1

>  <NF-kB reporter>
0.949

$$$$
>  <compound>
Fc1ccc(CN2CCc3c([nH]c4ccccc34)C2)cc1

>  <NF-kB reporter>
0.707

$$$$
>  <compound>
O=C(NCCCOc1cccc2cccnc12)c1cccnc1

>  <NF-kB reporter>
0.909

$$$$
>  <compound>
CC(C)(C)CC(=O)Nc1nc2ccc(S(C)(=O)=O)cc2s1

>  <NF-kB reporter>
1.19

$$$$
>  <compound>
COc1ccc(CNC2CCCc3ccccc32)cc1OC (centres undefined)

>  <NF-kB reporter>
1.1

$$$$
>  <compound>
CC1(C)CCCC2=C1CC1C(=O)NC(=O)C1C2 (centres undefined)

>  <NF-kB reporter>
0.977

$$$$
>  <compound>
COc1ccc(CNS(=O)(=O)c2ccc3ccccc3c2)cc1

>  <NF-kB reporter>
0.899

$$$$
>  <compound>
Oc1nc(O)nc(N(c2ccccc2)c2ccccc2)n1

>  <NF-kB reporter>
1.02

$$$$
>  <compound>
COc1cc(O)c(C(=O)Nc2nc(C(=O)NCCN(C(C)C)C(C)C)cs2)cc1OC

>  <NF-kB reporter>
1.01

$$$$
>  <compound>
COc1ccc(N(CC(=O)NCCSCc2ccccc2)S(C)(=O)=O)cc1Cl

>  <NF-kB reporter>
1.06

$$$$
>  <compound>
[O-][n+]1cccc(CO)c1

>  <NF-kB reporter>
1.96

$$$$
